target: Muscarinic acetylcholine receptor M1 (Homo sapiens); assay: Positive allosteric modulation of human muscarinic M1 receptor expressing in CHONFAT cells assessed as potentiation of acetylcholine-induced calcium mobilization preincubated for 4 mins and measured 4 mins after acetylcholine stimulation by FLIPR assay; type: functional, cell-based
Property: IP; scope: individual molecules
A complete answer gives the number followed by the unit.

The examples below pair each entry with its known result.
INSERT INTO results (structure_smiles_string, measurement_target, readout_type, recorded_result) VALUES
  ('N#CC1(c2ccccn2)CCN(Cc2cc(C(N)=O)c(=O)n3ccccc23)CC1', 'Muscarinic acetylcholine receptor M1 (Homo sapiens)', 'IP', '1900 nM'),
  ('N#CC1(c2ccccn2)CCN(Cc2cc(C(=O)NC3CCSCC3)c(=O)n3ccccc23)CC1', 'Muscarinic acetylcholine receptor M1 (Homo sapiens)', 'IP', '344 nM'),
  ('CS[C@H]1CCCC[C@@H]1NC(=O)c1cc(CN2CCC(C#N)(c3ccccn3)CC2)c2ccccn2c1=O', 'Muscarinic acetylcholine receptor M1 (Homo sapiens)', 'IP', '177 nM'),
  ('N#CC1(c2ccccn2)CCN(Cc2cc(C(=O)Nc3ccccn3)c(=O)n3ccccc23)CC1', 'Muscarinic acetylcholine receptor M1 (Homo sapiens)', 'IP', '640 nM'),
  ('N#CC1(c2ccccn2)CCN(Cc2cc(C(=O)NC3CCOCC3)c(=O)n3ccccc23)CC1', 'Muscarinic acetylcholine receptor M1 (Homo sapiens)', 'IP', '338 nM'),
  ('O=C(N[C@H]1CCCC[C@@H]1O)c1cc(CN2CCN(c3cc4scnc4cn3)CC2)c2ccccn2c1=O', 'Muscarinic acetylcholine receptor M1 (Homo sapiens)', 'IP', '22 nM'),
  ('C[C@H]1CCCC[C@@H]1NC(=O)c1cc(CN2CCC(C#N)(c3ccccn3)CC2)c2ccccn2c1=O', 'Muscarinic acetylcholine receptor M1 (Homo sapiens)', 'IP', '190 nM'),
  ('N#CC1(c2ccccn2)CCN(Cc2cc(C(=O)NC3CCCC3)c(=O)n3ccccc23)CC1', 'Muscarinic acetylcholine receptor M1 (Homo sapiens)', 'IP', '780 nM');

Moving on to the next molecule.
Q. Output IP of O=C(N[C@H]1CCCC[C@@H]1O)c1cc(CN2CCN(c3cc4ccccc4cn3)CC2)c2ccccn2c1=O
A. 110 nM

----------
test: Protein binding in rat plasma; assay type: ADME, cell-free; settings: read-out: PPB (converted)
Property: fraction unbound; scope: individual compounds
Could you respond with only the numeric value?

The examples below pair each entry with its known result.
INSERT INTO results (compound, recorded_result) VALUES
  ('N#CC1(c2ccccc2)CCN(Cc2cc(C(=O)N[C@H]3CCCC[C@@H]3O)c(=O)n3ccccc23)CC1', 0.031),
  ('N#CC1(c2ccccn2)CCN(Cc2cc(C(=O)NC3CCCCC3(F)F)c(=O)n3ccccc23)CC1 (stereo not drawn)', 0.04);

Moving on to the next compound.
Q. Output fraction unbound of N#CC1(c2ccccn2)CCN(Cc2cc(C(=O)N[C@H]3CCCC[C@@H]3O)c(=O)n3ccccc23)CC1
A. 0.14

----------
target: MDR1a (P-gp, ABCB1) (Rattus norvegicus); test: in vitro; details: not told
Sequence (P43245 whole entry): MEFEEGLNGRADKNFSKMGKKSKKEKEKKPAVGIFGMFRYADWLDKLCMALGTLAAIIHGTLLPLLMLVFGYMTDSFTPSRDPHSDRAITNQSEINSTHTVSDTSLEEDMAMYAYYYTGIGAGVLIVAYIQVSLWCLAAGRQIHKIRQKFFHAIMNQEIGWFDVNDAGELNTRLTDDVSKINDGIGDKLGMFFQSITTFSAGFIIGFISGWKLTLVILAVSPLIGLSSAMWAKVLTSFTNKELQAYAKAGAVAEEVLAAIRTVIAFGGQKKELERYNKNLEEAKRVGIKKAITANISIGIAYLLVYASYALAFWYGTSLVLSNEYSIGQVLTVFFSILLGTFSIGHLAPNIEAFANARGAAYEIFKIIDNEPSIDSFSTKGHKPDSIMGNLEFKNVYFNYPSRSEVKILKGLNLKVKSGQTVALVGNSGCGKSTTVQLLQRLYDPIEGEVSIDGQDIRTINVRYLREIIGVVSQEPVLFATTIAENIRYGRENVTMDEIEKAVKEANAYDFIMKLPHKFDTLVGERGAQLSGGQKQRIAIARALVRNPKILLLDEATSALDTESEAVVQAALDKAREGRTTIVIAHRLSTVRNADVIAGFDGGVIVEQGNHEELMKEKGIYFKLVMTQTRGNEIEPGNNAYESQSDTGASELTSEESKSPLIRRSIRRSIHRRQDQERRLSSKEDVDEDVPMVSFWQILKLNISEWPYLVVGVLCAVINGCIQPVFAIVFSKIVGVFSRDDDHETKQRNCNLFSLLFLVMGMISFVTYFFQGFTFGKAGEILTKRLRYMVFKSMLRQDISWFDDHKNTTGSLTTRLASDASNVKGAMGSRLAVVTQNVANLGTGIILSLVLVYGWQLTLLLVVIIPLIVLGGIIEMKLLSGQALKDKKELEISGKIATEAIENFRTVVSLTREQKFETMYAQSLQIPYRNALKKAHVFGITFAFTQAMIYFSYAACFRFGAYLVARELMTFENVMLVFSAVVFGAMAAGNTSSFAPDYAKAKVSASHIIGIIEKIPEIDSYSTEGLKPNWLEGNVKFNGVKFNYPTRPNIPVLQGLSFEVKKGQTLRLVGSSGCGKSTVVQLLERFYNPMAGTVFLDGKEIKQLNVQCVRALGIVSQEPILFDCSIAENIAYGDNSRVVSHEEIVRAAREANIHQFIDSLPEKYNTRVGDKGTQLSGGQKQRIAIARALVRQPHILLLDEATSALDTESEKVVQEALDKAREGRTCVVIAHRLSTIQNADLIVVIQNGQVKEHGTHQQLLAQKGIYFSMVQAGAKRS
Description: Efflux ratio assessed as rat MDR1a-mediated directional transport ratio from basolateral to apical over apical to basolateral by cell based assay
readout.type: efflux ratio
Could you respond with only the numeric value?

Q. Output efflux ratio of N#CC1(c2ccccn2)CCN(Cc2cc(C(=O)O)c(=O)n3ccccc23)CC1 [MSD-M1PAM]
A. 1.4

Q. Output efflux ratio of C[C@@]1(NC(=O)c2cc(CN3CCC(C#N)(c4ccccn4)CC3)c3ccccn3c2=O)CCCC[C@H]1O
A. 12

Q. Output efflux ratio of N#CC1(c2ccccc2)CCN(Cc2cc(C(=O)N[C@H]3CCCC[C@@H]3O)c(=O)n3ccccc23)CC1
A. 3.3

Q. Output efflux ratio of N#CC1(c2ccccn2)CCN(Cc2cc(C(=O)NC3CCOCC3)c(=O)n3ccccc23)CC1
A. 7.5
